experimentalSystem: Histone-lysine N-methyltransferase EZH2 (Homo sapiens, UniProt O75530+Q15022+Q15910)
Sequence (Q15910 whole entry, the tested form may be a part, one chain of several): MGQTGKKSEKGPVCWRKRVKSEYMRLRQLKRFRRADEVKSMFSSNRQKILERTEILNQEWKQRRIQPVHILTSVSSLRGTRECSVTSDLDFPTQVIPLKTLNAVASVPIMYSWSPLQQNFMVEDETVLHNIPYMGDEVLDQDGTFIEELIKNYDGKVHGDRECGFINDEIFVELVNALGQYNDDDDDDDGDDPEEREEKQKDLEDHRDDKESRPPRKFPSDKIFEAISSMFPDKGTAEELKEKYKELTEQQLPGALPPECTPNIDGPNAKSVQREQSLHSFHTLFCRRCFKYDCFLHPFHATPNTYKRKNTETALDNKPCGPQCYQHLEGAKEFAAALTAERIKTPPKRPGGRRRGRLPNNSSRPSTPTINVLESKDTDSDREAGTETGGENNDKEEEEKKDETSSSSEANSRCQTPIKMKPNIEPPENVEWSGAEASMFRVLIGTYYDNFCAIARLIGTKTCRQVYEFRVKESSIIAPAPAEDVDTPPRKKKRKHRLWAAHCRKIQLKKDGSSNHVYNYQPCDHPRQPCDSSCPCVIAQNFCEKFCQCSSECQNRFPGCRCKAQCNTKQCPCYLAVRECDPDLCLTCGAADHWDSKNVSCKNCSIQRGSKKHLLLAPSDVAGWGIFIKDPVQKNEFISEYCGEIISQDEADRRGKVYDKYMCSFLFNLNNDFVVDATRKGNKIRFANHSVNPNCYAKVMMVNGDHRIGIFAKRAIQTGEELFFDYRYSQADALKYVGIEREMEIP
assayNotes: Inhibition of EZH2 histone methyltransferase activity of EZH2/EED/SUZ12 protein complex (unknown origin) using histone H3 peptide as substrate (21 to 44 residues) in presence of [3H]-S-adenosylmethionine after 2 hrs by scintillation proximity assay
pIC50: −log10 of the molar value.
readoutType: pIC50

CCc1cc(C)[nH]c(=O)c1CNC(=O)c1cc(-c2ccc(N3CCN(C(C)C)CC3)nc2)cc2c1cnn2C(C)C 7.92
CCCc1cc(C)[nH]c(=O)c1CNC(=O)c1cc(-c2ccc(C(F)(F)F)cc2)cc2c1cnn2C(C)C 7.18
Cc1[nH]c(=O)c(CNC(=O)c2cc(-c3ccc(N4CCN(C(C)C)CC4)nc3)cc3c2cnn3C(C)C)c2c1CCC2 7.49

I = CCCc1cc(C)[nH]c(=O)c1CNC(=O)c1cc(-c2ccc(F)cn2)cc2c1cnn2C(C)C
II = CCCc1cc(C)[nH]c(=O)c1CNC(=O)c1cc(-c2ccc(N3CCN(C(C)C)CC3)nc2)cc2c1cnn2C1CCCCCC1
### Prompt Short answer wanted: higher pIC50, I or II ? Mark your selection by writing its label.
### Response I

A = CCCc1cc(C)[nH]c(=O)c1CNC(=O)c1cc(-c2ccc(N3CCN(C(C)C)CC3)nc2)cc2c1cnn2CCCCCCO
B = CCCc1cc(C)[nH]c(=O)c1CNC(=O)c1cc(-c2ccccc2)cc2c1cnn2C(C)C
C = CCc1c(C)c[nH]c(=O)c1CNC(=O)c1cc(-c2ccc(N3CCN(C(C)C)CC3)nc2)cc2c1cnn2C(C)C
D = CCCc1cc(C)[nH]c(=O)c1CNC(=O)c1cc(-c2ccc(N3CCN(C(C)C)CC3)nc2)cc2nn(C(C)C)cc12
### Prompt Order field: pIC50 | Direction: descending (largest first) Output spec: a listing of the labels in the requested order.
### Response A, B, D, C
(A: 7.60, B: 7.39, D: 6.42, C: 5.99)
